These entries and their values trace back to paper PMC5540273.

test system: SRPK1; conditions: concentration: 1 μM, replicates: in singlicate; n = 1;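 also: KINOMEscan kinase panel screen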
Can you tell me %Inh for the items I'm about to list?
Give bare numbers, in %.

Go through the items and report each one's %Inh.
1. CN(c1ccc(NC(=O)Nc2cc(C(F)(F)F)ccc2F)cc1)c1ccnc(Nc2ccc(S(N)(=O)=O)cc2)n1
2. Cc1occc1-c1ncc(OC[C@@H](N)Cc2c[nH]c3ccccc23)cc1-c1ccc2[nH]nc(C)c2c1.O=C(O)C(F)(F)F
3. COc1cccc(C2=C(Nc3ccc(Cl)c(C(=O)O)c3)C(=O)NC2=O)c1
4. Cc1cccc(Nc2nc(N[C@H]3CCNC3)ncc2C(N)=O)c1.Cl
5. COc1ccc(Nc2nccc(NCCNC(=O)c3cc4ccccc4s3)n2)cc1

Data returned:
18
54
13
72
32

Give %Inh for each of the items listed below.
1. c1ccc(Oc2ccc(Nc3ccnc4cc(-c5ccc(CNCCN6CCOCC6)o5)ccc34)cc2)nc1
2. Nc1ncc(-c2cccnc2)c2scc(-c3ccc4c(c3)CCN4C(=O)Cc3ccccc3)c12
3. CN1CCN(CCCNc2nccc(-c3c(-c4ccc(F)cc4)nn4cc(C(F)(F)F)ccc34)n2)CC1

Data returned:
1: 0; 2: 32; 3: 26

###

tested on: RIPK2; conditions: concentration: 1 μM, replicates: in singlicate; n = 1
Returns one of met or not met; met when %Inh is >= 20%.

# mol, system.under.test, qualitative.label
rows = [
    ("FC(F)(F)c1ccc(/C=C/c2cncnc2Nc2ccc3[nH]c(Cc4ccccc4)nc3c2)cc1", "RIPK2", "not met"),
    ("COc1cccc(-c2ccc3c(NC(=O)C4CC4)n[nH]c3n2)c1", "RIPK2", "not met"),
    ("O=C(Nc1cccc(Oc2ccc3nc(NC(=O)C4CC4)cn3n2)c1)c1ccccc1C(F)(F)F", "RIPK2", "not met"),
    ("Cl.c1ccc(-c2ccc3c(Nc4ccc5[nH]ncc5c4)ccnc3c2)nc1", "RIPK2", "met"),
    ("CC(=O)Nc1nc2cnc(Nc3cc(NC(=O)c4cccc(C5(C#N)CC5)c4Cl)ccc3C)nc2s1", "RIPK2", "not met"),
    ("CSc1cccc2c(-c3ccncn3)c(-c3ccc(F)cc3)nn12", "RIPK2", "met"),
]

Turning now to a further record.
Data request: Reported %Inh at or above 20%? COc1cccc(C2=C(Nc3ccc(Cl)c(C(=O)O)c3)C(=O)NC2=O)c1
Data returned: met

###

For each entry below, report its %Inh value.
tested on: MYLK; conditions: concentration: 1 μM, replicates: in singlicate; n = 1
Number plus unit, in that order.

Here are 3 compounds together with their reported answers.
# compound, system.under.test, experimental.value
measured = [
    ("COc1cc(Nc2nccc(-c3c(-c4cccc(NC(=O)c5c(F)cccc5F)c4)nn4ncccc34)n2)cc(OC)c1OC", "MYLK", "9%"),
    ("COc1cc(Nc2nccc(N3CCC(NC(=O)c4cc5ccccc5s4)C3)n2)cc(OC)c1OC (stereo not shown)", "MYLK", "0%"),
    ("CCCCc1nn2ncccc2c1-c1ccnc(Nc2ccc(N3CCN(C)CC3)cc2)n1", "MYLK", "4%"),
]

Dear colleague, could you send me %Inh for each of the items below? Thanks.
1. Nc1n[nH]c2cnc(-c3ccccc3)cc12
2. COC(=O)Nc1nc2ccc(Oc3ccc(NC(=O)Nc4cc(C(F)(F)F)ccc4F)cc3)cc2n1C.Cl

Data returned:
3%
0%

Provide the reported %Inh of each entry below, same order.
1. Cl.Cl.NCC(NC(=O)c1cc(-c2ccccc2)c(-c2ccnc3[nH]ccc23)s1)c1ccccc1 (stereo not shown)
2. O=C(NC1CCN(c2ccnc(Nc3ccc(F)cc3)n2)C1)c1cc2ccccc2s1 (stereo not shown)
3. COc1cccc(NC(=O)NC2CCN(c3ccnc(Nc4cc(OC)c(OC)c(OC)c4)n3)C2)c1 (stereo not shown)
4. Cc1ccc(C)c(NC(=O)NC2CCN(c3ccnc(Nc4ccc(F)cc4)n3)C2)c1 (stereo not shown)

Data returned:
1. 26%
2. 36%
3. 17%
4. 2%

Data request: Fill in the blank: the reported %Inh of Nc1ncc(-c2ccc3nccc(-c4ccncc4)c3c2)cc1S(=O)(=O)N1CCOCC1 is ____.
Data returned: 20%
